system: LOX IMVI; experiment: In vitro inhibition of Melanoma LOX IM VI cell lines; assay type: functional; conditions: Homo sapiens
readout-type: GI50 (nM)
Please reply with the bare figure in nM and do not write the unit itself.

INPUT: Short answer please: GI50, LOX IMVI, entry C=C1CC(Cn2ccc(=O)[nH]c2=O)(c2ccc(F)cc2)OC1=O (stereo unspecified)
OUTPUT: 6030

INPUT: Repeat for the following compound: C=C1CC(Cn2cc(C)c(=O)[nH]c2=O)(c2ccc(F)cc2)OC1=O (stereo unspecified)
OUTPUT: 4270

INPUT: Also need C=C1CC(Cn2cc(Br)c(=O)[nH]c2=O)(c2ccc(-c3ccccc3)cc2)OC1=O (stereo unspecified) , thanks.
OUTPUT: 851

INPUT: Follow-up entry: C=C1CC(Cn2cc(C)c(=O)[nH]c2=O)(c2ccc(-c3ccccc3)cc2)OC1=O (stereo unspecified)
OUTPUT: 1740

INPUT: Also need C=C1CC(Cn2cc(Br)c(=O)[nH]c2=O)(c2ccc(F)cc2)OC1=O (stereo unspecified) , thanks.
OUTPUT: 3390

INPUT: Same read-out for C=C1CC(Cn2ccc(=O)[nH]c2=O)(c2ccc(-c3ccccc3)cc2)OC1=O (stereo unspecified) ?
OUTPUT: 209

----------
system: A549; test: In vitro inhibition of Non-Small Cell Lung Cancer A549/ATCC cell lines; type: functional; conditions: Homo sapiens
Could you please report measured GI50 for the items listed next?

INPUT: Give the measured GI50 of C=C1CC(Cn2ccc(=O)[nH]c2=O)(c2ccc(-c3ccccc3)cc2)OC1=O (stereo not given) .
OUTPUT: 10.7 µM

INPUT: Also need C=C1CC(Cn2cc(C)c(=O)[nH]c2=O)(c2ccc(F)cc2)OC1=O (stereo not given) , thanks.
OUTPUT: 17.8 µM

INPUT: Item: C=C1CC(Cn2cc(Br)c(=O)[nH]c2=O)(c2ccc(-c3ccccc3)cc2)OC1=O (stereo not given)
OUTPUT: 6.17 µM

INPUT: Note, next up: C=C1CC(Cn2cc(C)c(=O)[nH]c2=O)(c2ccc(-c3ccccc3)cc2)OC1=O (stereo not given)
OUTPUT: 12.3 µM

INPUT: Also need C=C1CC(Cn2ccc(=O)[nH]c2=O)(c2ccc(F)cc2)OC1=O (stereo not given) , thanks.
OUTPUT: 17 µM
